The following molecules are listed with their measured max activity (delta-delta-Ct) values.
assay: activators of Pax4 gene expression, dose response, mouse alpha TC1 cells, RT-qPCR, cherry-picks (AID 1053206); settings: Pax4 mRNA qPCR, 6 days, stronger effect = lower value; at 19.5 µM unless noted
Active and inactive are the calls of the source.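 Rule for the calls: active = compounds lowering delta-delta-Ct, meaning more Pax4 mRNA, with half-max potency at most twice the top tested dose; inconclusive = flat fit dropping 30 to 70 percent, or unreliable fit; inactive = the rest.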

{"MOLECULE": "CNC[C@@H]1Oc2cc(C#Cc3ccccc3OC)ccc2S(=O)(=O)N([C@H](C)CO)C[C@H]1C", "max activity (delta-delta-Ct)": "-0.002% [at 0.6 µM] (inactive)"}
{"MOLECULE": "COc1ccc2c3c(n(C)c2c1)[C@@H](CO)N(CC1CC1)CC31CN(C(=O)c2ccc3c(c2)OCO3)C1", "max activity (delta-delta-Ct)": "-0.004% [at 0.038 µM] (inactive)"}
{"MOLECULE": "COc1cc(CN2C[C@@H]3N[C@H](C2)C3c2ccc(-c3ccc(C#N)cc3)cc2)cc(OC)c1 (some centres undefined)", "max activity (delta-delta-Ct)": "-0.065% (inactive)"}
{"MOLECULE": "C[C@H]1CNC(=O)[C@@H](Cc2ccc(C(F)(F)F)cc2)CCn2nncc2COC1", "max activity (delta-delta-Ct)": "0.001% [at 0.16 µM] (inactive)"}
{"MOLECULE": "C/C=C/c1ccc([C@H]2[C@@H](CO)N3C(=O)CN(Cc4ccc(F)cc4)C[C@@H]23)cc1", "max activity (delta-delta-Ct)": "-0.008% [at 0.16 µM] (inactive)"}
{"MOLECULE": "CO[C@@H](CN(C)Cc1cc(F)ccc1F)[C@@H](C)CN(C(=O)Nc1ccc(C(F)(F)F)cc1)[C@H](C)CO", "max activity (delta-delta-Ct)": "-0.501% [at 10 µM] (inactive)"}
{"MOLECULE": "N#Cc1cccc(-c2ccc(C3[C@@H]4CN(C(=O)Nc5ccc(C(F)(F)F)cc5)C[C@H]3N4)cc2)c1 (some centres undefined)", "max activity (delta-delta-Ct)": "-0.156% (inactive)"}
{"MOLECULE": "Cc1cccc(-c2ccc(C3[C@@H]4CN(Cc5cccc(F)c5)C[C@H]3N4)cc2)c1 (some centres undefined)", "max activity (delta-delta-Ct)": "-2.82% (inactive)"}
{"MOLECULE": "C[C@@H]1CN([C@@H](C)CO)C(=O)Cc2cc(NC(=O)C3CCCCC3)ccc2O[C@@H]1CN(C)Cc1ccc(Cl)c(Cl)c1", "max activity (delta-delta-Ct)": "-0.143% [at 1.2 µM] (inactive)"}
